Values compiled from ChEMBL document CHEMBL4118104.

test: Drug uptake in Sprague-Dawley rat plasma at 30 mg/kg, po after 1 hr by LC-MS/MS analysis; assay type: ADME, organism-based

smiles_code: Cl.Oc1ccc2[nH]c(-c3ccc4c(Cl)cc(Cl)c(O)c4n3)cc2c1
concentration at 1 h [ng/g]: 902

###

experiment: Permeability of compound at 100 ug/ml after 10 hrs by PAMPA assay; format: ADME; conditions: read-out: permeability
The label depends only on Papp at 10 h, 100 ug/ml: Satisfied if it is at least 8 ×10⁻⁶ cm/s, Not satisfied if it is smaller.

compound: Oc1cccc2ccc(-c3cc4cc(Cl)ccc4[nH]3)nc12
class_label: Satisfied

compound: COc1cc2cc(-c3ccc4c(Cl)cc(Cl)c(O)c4n3)[nH]c2cc1OC
class_label: Not satisfied

compound: Oc1ccc2[nH]c(-c3ccc4c(Cl)cc(Cl)c(O)c4n3)cc2c1
class_label: Satisfied

compound: COc1cc2[nH]c(-c3ccc4cccc(O)c4n3)cc2cc1O
class_label: Satisfied

compound: CN(C)CCCN1c2ccccc2Sc2ccc(Cl)cc21 [CHLORPROMAZINE]
class_label: Not satisfied

compound: Oc1ccc2[nH]c(-c3cc(Cl)c(O)c4ncccc34)cc2c1
class_label: Not satisfied

compound: Oc1cccc2ccc(-c3cc4cc(F)ccc4[nH]3)nc12
class_label: Satisfied
